Data origin, for the record: patent US6355673B1

# assayed_target: neutrophil collagenase (MMP-8) (Homo sapiens, UniProt P22894)
# Construct: enzymatic activity of the catalytic domains of human stromelysin and of neutrophil collagenase; made in house
# Sequence (P22894 100-262 limits assumed): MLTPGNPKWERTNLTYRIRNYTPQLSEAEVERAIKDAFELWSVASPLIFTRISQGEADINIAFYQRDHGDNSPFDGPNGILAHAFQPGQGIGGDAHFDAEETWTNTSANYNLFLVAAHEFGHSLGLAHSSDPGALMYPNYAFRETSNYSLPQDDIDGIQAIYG
# assay_details: Enzyme inhibition of the catalytic domain of neutrophil collagenase (fluorogenic substrate)
# Format: biochemical
# measurement_conditions: 15 min preincubation, pH=6.5, fluorescence 328 nm (ex)/393 nm (em)
measurement_label: IC50 (nM)

>>> df
                  compound_structure_string                            assayed_target  readout_unit  result_value
0  O=C(NCCC[C@H](NS(=O)(=O)c1ccc(-c2ccc(Cl)cc2)cc1)C(=O)O)c1ccc(OC(F)(F)F)cc1  neutrophil collagenase (MMP-8) (Homo sapiens, UniProt P22894)            nM            10
1  O=C(NCCC[C@H](NS(=O)(=O)c1ccc(-c2ccc(Cl)cc2)cc1)C(=O)O)c1ccccc1F  neutrophil collagenase (MMP-8) (Homo sapiens, UniProt P22894)            nM             3
2  O=C(NCCC[C@H](NS(=O)(=O)c1ccc(-c2ccc(Cl)cc2)cc1)C(=O)O)OCc1ccccc1  neutrophil collagenase (MMP-8) (Homo sapiens, UniProt P22894)            nM             8
3  NC(=O)C1(C(=O)NCCC[C@H](NS(=O)(=O)c2ccc(-c3ccc(Cl)cc3)cc2)C(=O)O)CC1  neutrophil collagenase (MMP-8) (Homo sapiens, UniProt P22894)            nM             4

[A] O=C(NCCC[C@@H](NS(=O)(=O)c1ccc(-c2ccc(Cl)cc2)cc1)C(=O)O)c1ccc(F)cc1
[B] N/C(=N\[N+](=O)[O-])NCCC[C@H](NS(=O)(=O)c1ccc(-c2ccc(Cl)cc2)cc1)C(=O)O
[C] COc1cc(Cl)cc(C(=O)NCCC[C@H](NS(=O)(=O)c2ccc(-c3ccc(Cl)cc3)cc2)C(=O)O)c1
INPUT: Reorder: IC50, max to min. Give me the labels in the order the question wants.
OUTPUT: C, B, A
(C: 20 nM, B: 10 nM, A: 3 nM)
